- Test Target: hNET (Homo sapiens (Human))
- Sequence (P23975 whole entry): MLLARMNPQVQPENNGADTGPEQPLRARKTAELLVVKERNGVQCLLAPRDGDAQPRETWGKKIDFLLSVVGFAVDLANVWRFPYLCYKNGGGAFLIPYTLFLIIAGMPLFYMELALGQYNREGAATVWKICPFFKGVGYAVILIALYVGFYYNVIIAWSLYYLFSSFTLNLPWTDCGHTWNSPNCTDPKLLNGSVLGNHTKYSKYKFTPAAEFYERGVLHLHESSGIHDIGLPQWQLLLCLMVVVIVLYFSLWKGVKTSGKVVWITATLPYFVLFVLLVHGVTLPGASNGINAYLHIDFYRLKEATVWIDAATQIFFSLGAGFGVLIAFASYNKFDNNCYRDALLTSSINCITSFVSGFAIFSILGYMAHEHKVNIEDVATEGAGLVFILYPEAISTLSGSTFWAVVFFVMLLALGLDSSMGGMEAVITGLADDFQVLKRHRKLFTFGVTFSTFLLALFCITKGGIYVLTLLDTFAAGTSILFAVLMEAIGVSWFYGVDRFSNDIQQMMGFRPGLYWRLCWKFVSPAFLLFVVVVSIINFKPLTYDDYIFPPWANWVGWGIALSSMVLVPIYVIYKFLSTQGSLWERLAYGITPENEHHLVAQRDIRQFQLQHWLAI
Reported Metric: IC50 (nM)
Please respond with the number in nM and leave the unit unwritten.

>  <Molecule>
CS(=O)(=O)c1ccc(-c2ccc3c(c2)CNCC3c2ccc(Cl)c(Cl)c2)cc1 (stereo not drawn) [Example 16]

>  <Test Target>
hNET (Homo sapiens (Human))

>  <IC50 / nM>
13

$$$$
>  <Molecule>
Nc1ccc(-c2ccc3c(c2)CNCC3c2ccc(Cl)c(Cl)c2)nn1 (stereo not drawn) [Example 34]

>  <Test Target>
hNET (Homo sapiens (Human))

>  <IC50 / nM>
22.9

$$$$
>  <Molecule>
N#Cc1cccc(-c2ccc3c(c2)CNCC3c2ccc(Cl)c(Cl)c2)c1 (stereo not drawn) [Example 15]

>  <Test Target>
hNET (Homo sapiens (Human))

>  <IC50 / nM>
86

$$$$
>  <Molecule>
CC1(C)NCC(c2ccc(Cl)c(Cl)c2)c2ccc(-c3ccc(N)nn3)cc21 (stereo not drawn) [Example 13]

>  <Test Target>
hNET (Homo sapiens (Human))

>  <IC50 / nM>
97

$$$$
>  <Molecule>
Cc1noc(C)c1-c1ccc2c(c1)CNCC2c1ccc(Cl)c(Cl)c1 (stereo not drawn) [Example 25]

>  <Test Target>
hNET (Homo sapiens (Human))

>  <IC50 / nM>
195

$$$$

What value of IC50 on hNET (Homo sapiens (Human)) does Clc1ccc(C2CNCc3cc(-c4cccnn4)ccc32)cc1Cl (stereo not drawn) [Example 33] have?
26.4

Observed IC50 on hNET (Homo sapiens (Human)) for CC1(C)NCC(c2ccc(Cl)c(Cl)c2)c2ccc(-c3cccnn3)cc21 (single isomer, unassigned) [Example 9] , please.
133

Item: NC(=O)c1ccc(-c2cc3c(cc2F)C(c2ccc(Cl)c(Cl)c2)CNC3)cc1 (stereo not drawn) [Example 26] Test system: hNET (Homo sapiens (Human)) Read-out: IC50 Value: ?
23.3

###

The entries below are paired with their reported pIC50.
- Test Target: hSERT (Homo sapiens (Human))
- Test Summary: SERT radioligand binding assay ([125I]RTI-55, HEK-293 membranes)
- Test Parameters: (+)-enantiomers; read-out: SERT IC50
Friendly reminder that pIC50 comes from taking -log10 of the concentration in mol/L.

The following molecules have reported results that may help.
>  <Molecule>
Fc1cc2c(cc1-c1ccc(C(F)(F)F)nn1)CNCC2c1ccc(Cl)c(Cl)c1 (single isomer, unassigned; (+))

>  <Test Target>
hSERT (Homo sapiens (Human))

>  <pIC50>
7.53

$$$$
>  <Molecule>
FC(F)(F)c1ccc(-c2ccc3c(c2)CNCC3c2ccc(Cl)c(Cl)c2)nn1 (stereo not drawn)

>  <Test Target>
hSERT (Homo sapiens (Human))

>  <pIC50>
8.00

$$$$
>  <Molecule>
CC1(C)NCC(c2ccc(Cl)c(Cl)c2)c2ccc(-c3ccc(N)nn3)cc21 (stereo not drawn)

>  <Test Target>
hSERT (Homo sapiens (Human))

>  <pIC50>
8.64

$$$$
>  <Molecule>
O=c1cccnn1-c1ccc2c(c1)CNCC2c1ccc(Cl)c(Cl)c1 (stereo not drawn)

>  <Test Target>
hSERT (Homo sapiens (Human))

>  <pIC50>
8.21

$$$$
>  <Molecule>
Cc1ccc(C2CCNc3cc(-c4ccc(C)nn4)ccc32)cc1 (stereo not drawn)

>  <Test Target>
hSERT (Homo sapiens (Human))

>  <pIC50>
7.55

$$$$
>  <Molecule>
CS(=O)(=O)c1ccc(-c2ccc3c(c2)CNCC3c2ccc(Cl)c(Cl)c2)cc1 (stereo not drawn)

>  <Test Target>
hSERT (Homo sapiens (Human))

>  <pIC50>
7.70

$$$$

Consider the record given below.
Need pIC50 of CS(=O)(=O)c1cccc(-c2cc3c(cc2F)C(c2ccc(Cl)c(Cl)c2)CNC3)c1 (stereo not drawn) , thanks.
7.08

###

- Test Target: hSERT (Homo sapiens (Human), UniProt P31645)
- Sequence (P31645 whole entry): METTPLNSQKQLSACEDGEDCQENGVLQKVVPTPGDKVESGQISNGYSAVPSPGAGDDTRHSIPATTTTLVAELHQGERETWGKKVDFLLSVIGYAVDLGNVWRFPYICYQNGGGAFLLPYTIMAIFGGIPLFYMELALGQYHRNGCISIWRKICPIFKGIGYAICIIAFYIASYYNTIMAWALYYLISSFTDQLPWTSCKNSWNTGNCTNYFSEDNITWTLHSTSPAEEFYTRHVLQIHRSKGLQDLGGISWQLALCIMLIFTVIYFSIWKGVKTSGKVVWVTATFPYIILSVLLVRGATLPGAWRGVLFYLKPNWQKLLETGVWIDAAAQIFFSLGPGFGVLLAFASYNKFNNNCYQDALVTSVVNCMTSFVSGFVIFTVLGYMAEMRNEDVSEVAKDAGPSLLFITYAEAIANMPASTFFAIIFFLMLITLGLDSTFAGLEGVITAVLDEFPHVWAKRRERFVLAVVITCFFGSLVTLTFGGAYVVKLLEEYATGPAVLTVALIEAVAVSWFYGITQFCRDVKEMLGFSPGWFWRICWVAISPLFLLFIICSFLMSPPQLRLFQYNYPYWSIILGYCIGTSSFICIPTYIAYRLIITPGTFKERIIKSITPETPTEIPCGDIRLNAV
- Test Summary: SERT radioligand binding assay ([125I]RTI-55, HEK-293 membranes)
Reported Metric: IC50 (µM)
Your answer should be a plain number; it is taken to be in µM.

Entry under review: CC1(C)NCC(c2ccc(Cl)cc2)c2ccc(-c3ccc(C(F)(F)F)nn3)cc21 (single isomer, unassigned) . Reported IC50?
0.0611

###

- Test Target: hDAT (Homo sapiens (Human), UniProt Q01959)
- Sequence (Q01959 whole entry): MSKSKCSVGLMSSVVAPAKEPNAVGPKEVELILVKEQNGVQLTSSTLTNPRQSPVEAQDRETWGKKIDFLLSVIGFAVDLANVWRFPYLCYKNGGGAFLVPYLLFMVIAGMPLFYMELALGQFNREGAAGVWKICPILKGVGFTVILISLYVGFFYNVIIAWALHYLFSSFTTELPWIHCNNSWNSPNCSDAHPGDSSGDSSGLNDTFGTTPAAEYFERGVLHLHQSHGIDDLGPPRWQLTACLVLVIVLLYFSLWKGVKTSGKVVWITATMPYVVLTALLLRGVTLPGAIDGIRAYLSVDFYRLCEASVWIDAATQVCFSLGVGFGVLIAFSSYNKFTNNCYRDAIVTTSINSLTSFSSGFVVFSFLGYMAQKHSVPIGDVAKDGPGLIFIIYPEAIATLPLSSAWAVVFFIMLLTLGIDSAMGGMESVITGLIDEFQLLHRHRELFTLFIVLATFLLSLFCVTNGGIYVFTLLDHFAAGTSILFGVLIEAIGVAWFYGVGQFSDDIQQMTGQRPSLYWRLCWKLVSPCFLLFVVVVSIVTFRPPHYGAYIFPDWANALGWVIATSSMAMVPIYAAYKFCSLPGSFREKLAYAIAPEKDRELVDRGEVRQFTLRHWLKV
- Test Summary: DAT radioligand binding assay ([125I]RTI-55, HEK-293 membranes)
- Test Parameters: (+)-enantiomers; read-out: DAT IC50
Reported Metric: pIC50
Kindly note that pIC50 refers to -log10 of the concentration in mol/L and answer with the value alone.

>  <Compound>
O=c1cccnn1-c1ccc2c(c1)CNCC2c1ccc(Cl)c(Cl)c1 (stereo not drawn)

>  <Value Reported>
7.52

$$$$
>  <Compound>
Cc1noc(C)c1-c1ccc2c(c1)CNCC2c1ccc(Cl)c(Cl)c1 (stereo not drawn)

>  <Value Reported>
7.33

$$$$
>  <Compound>
CS(=O)(=O)c1cccc(-c2cc3c(cc2F)C(c2ccc(Cl)c(Cl)c2)CNC3)c1 (stereo not drawn)

>  <Value Reported>
7.00

$$$$
>  <Compound>
FC(F)(F)c1ccc(-c2ccc3c(c2)CNCC3c2ccc(Cl)c(Cl)c2)nn1 (stereo not drawn)

>  <Value Reported>
7.10

$$$$
>  <Compound>
Nc1ccc(-c2ccc3c(c2)CNCC3c2ccc(Cl)c(Cl)c2)nn1 (stereo not drawn)

>  <Value Reported>
8.15

$$$$

Quick one: pIC50 for Nc1ccc(-c2ccc3c(c2)CNCC3c2ccc(F)cc2)nn1 (stereo not drawn) ?
7.05

Consider the compound Clc1ccc(C2CNCc3cc(-c4cccnn4)ccc32)cc1Cl (stereo not drawn) and give its measured pIC50.
7.81

Recorded pIC50 of O=c1ccccn1-c1ccc2c(c1)CNCC2c1ccc(Cl)c(Cl)c1 (stereo not drawn) , please.
7.07

Requested field: pIC50. Item: Nc1ccc(-c2ccc3c(c2)CNCC3c2ccc(Cl)cc2)nn1 (single isomer, unassigned; (+))
7.51

Query: pIC50; subject: Cc1ccc(C2CCNc3cc(-c4ccc(C)nn4)ccc32)cc1 (stereo not drawn)
7.19

Tell me the measured pIC50 of CC1(C)NCC(c2ccc(Cl)c(Cl)c2)c2ccc(-c3ccc(N)nn3)cc21 (stereo not drawn) , please.
8.62

Endpoint output: pIC50 of O=c1ccc(-c2cc3c(cc2F)C(c2ccc(Cl)c(Cl)c2)CNC3)n[nH]1 (stereo not drawn) . Value?
7.43

Entry under review: FC(F)Oc1ccc(-c2ccc3c(c2)CNCC3c2ccc(Cl)c(Cl)c2)nn1 (stereo not drawn) . Reported pIC50?
7.30

Any idea what pIC50 was measured for NC(=O)c1ccc(-c2cc3c(cc2F)C(c2ccc(Cl)cc2)CNC3)cc1 (stereo not drawn) ?
7.61

I would be grateful if you could share the reported pIC50 for Fc1cc2c(cc1-c1ccc3ncnn3c1)CNCC2c1ccc(Cl)c(Cl)c1 (single isomer, unassigned; (+)) .
7.08

Which value of pIC50 has been reported for CS(=O)(=O)c1ccc(-c2ccc3c(c2)CNCC3c2ccc(Cl)c(Cl)c2)cc1 (stereo not drawn) in the records?
7.11

Please give the measured pIC50 for this compound: CC1(C)NCC(c2ccc(Cl)c(Cl)c2)c2ccc(-c3ccc4ncnn4c3)cc21 (stereo not drawn)
8.68

Any idea what pIC50 was measured for FC(F)(F)c1ccc(-c2ccc3c(c2)NCCC3c2ccc(Cl)cc2)nn1 (single isomer, unassigned; (+)) ?
6.86

Could you tell me which pIC50 is on file for N#Cc1cccc(-c2ccc3c(c2)CNCC3c2ccc(Cl)c(Cl)c2)c1 (stereo not drawn) ?
6.67

Sample NC(=O)c1ccc(-c2cc3c(cc2F)C(c2ccc(Cl)c(Cl)c2)CNC3)cc1 (stereo not drawn) — what was its pIC50?
8.24

Would you mind telling me what pIC50 value was observed for Fc1cc2c(cc1-c1ccc(OC(F)F)nn1)CNCC2c1ccc(Cl)c(Cl)c1 (single isomer, unassigned; (+)) ?
7.48

###

This section lists IC50 readings for hNET (Homo sapiens (Human), UniProt P23975).
Please give a number only; it is taken to be in µM.

Observe how each entry below is paired with its result.
>  <Compound>
CNc1ccc(-c2ccc3c(c2)CNCC3c2ccc(F)cc2)nn1 (single isomer, unassigned; (+)) [Example 3]

>  <Reported Metric>
IC50

>  <Unit>
µM

>  <Value Reported>
0.15

$$$$
>  <Compound>
NC(=O)c1ccc(-c2cc3c(cc2F)C(c2ccc(Cl)cc2)CNC3)cc1 (stereo not shown) [Example 30]

>  <Reported Metric>
IC50

>  <Unit>
µM

>  <Value Reported>
0.215

$$$$
>  <Compound>
Nc1ccc(-c2ccc3c(c2)CNCC3c2ccc(F)cc2)nn1 (stereo not shown) [Example 2]

>  <Reported Metric>
IC50

>  <Unit>
µM

>  <Value Reported>
0.36

$$$$
>  <Compound>
CC1(C)NCC(c2ccc(Cl)c(Cl)c2)c2ccc(-c3ccc(C(F)(F)F)nn3)cc21 (single isomer, unassigned) [Example 10]

>  <Reported Metric>
IC50

>  <Unit>
µM

>  <Value Reported>
0.549

$$$$
>  <Compound>
Fc1cc2c(cc1-c1ccc(C(F)(F)F)nn1)CNCC2c1ccc(Cl)c(Cl)c1 (single isomer, unassigned; (+)) [Example 29]

>  <Reported Metric>
IC50

>  <Unit>
µM

>  <Value Reported>
0.0341

$$$$
>  <Compound>
Cc1ccc(C2CCNc3cc(-c4ccc(C)nn4)ccc32)cc1 (stereo not shown) [Example 1]

>  <Reported Metric>
IC50

>  <Unit>
µM

>  <Value Reported>
0.174

$$$$

What does the record list as IC50 for Fc1cc2c(cc1-c1ccc3ncnn3c1)CNCC2c1ccc(Cl)c(Cl)c1 (single isomer, unassigned; (+)) [Example 39] ?
0.0704

Each recorded value in this set is attributed to patent US9034899B2.
